system: Botrytis cinerea; assay: Microtiterplate test against the grey mold Botrytis cinerea (Botrci); assay type: cell-based; details: Botrytis cinerea, 168 h; solo product, 0.25 ppm; read-out: Observed efficacy
# Lookup of reported inhibition of growth at […] keyed by entry
Respond with the bare value in %.

Guide cases for inhibition of growth at […], answers given:
C#CCC(O)(Cn1cncn1)c1ccc(Oc2ccc(Cl)cc2)cc1Cl (stereo not drawn): 49
O=C(Nc1ccccc1-c1ccc(Cl)cc1)c1cccnc1Cl [II-7, boscalid, reference compound]: 38
CCCC(Cn1cncn1)(OC)c1ccc(Oc2ccc(Cl)cc2)cc1Cl (stereo not drawn): 1
CC(O)(Cn1cncn1)c1ccc(Oc2ccc(F)cc2)cc1Cl (stereo not drawn): 44
COC(C)(Cn1cncn1)c1ccc(Oc2ccc(Cl)cc2)cc1Cl (stereo not drawn): 16

Turning now to a further compound:
Request: Value lookup for inhibition of growth at […]; key = CC(O)(Cn1cncn1)c1ccc(Oc2ccc(Cl)cc2)cc1Cl (stereo not drawn)
Result: 0

Value source: patent US20150313225A1
